Below are IC50 measurements against Cytochrome P450 2C19 (Homo sapiens) drawn from the literature.

Worked set:
COc1cc2ccc(C(O)(c3cncs3)C(C)C)cc2cc1OC (centres unmarked): 3 µM
COc1cc2c(NC3CCN(C(C)C)CC3)nc(N3CCC3)nc2cc1OCCCN1CCCC1: > 100 µM
COCCN1C[C@@H](n2cc(F)c(F)c2)[C@H](NC(=O)Nc2c(C)c(-c3cnc4c(c3)COC4)nn2-c2ccccc2)C1: > 50 µM

Given COc1cc2ccc(C(O)(c3ccncn3)C(C)C)cc2cc1OC (centres unmarked) , state its recorded IC50.
8.5 µM

Given COc1cncc(Nc2ccc(C(=O)c3c[nH]c4ncnc(NC5CCCCC5)c34)c(F)n2)c1 , state its recorded IC50.
5 to 10 µM

Given C[C@]1(c2cc(NC(=O)c3ccc(F)cn3)ccc2F)N=C(N)OCC12CC(F)(F)C2 , state its recorded IC50.
≥ 20 µM

Given CC(C)NC(=O)c1csc(C(=O)Nc2cc3n(n2)CCN3c2ccc3c(c2)CCN(C)C3=O)c1 , state its recorded IC50.
> 20 µM

Given N#Cc1ccc(Oc2ccc(C(F)(F)C(O)(Cn3cnnn3)c3ccc(F)cc3F)nc2)cc1 (centres unmarked) , state its recorded IC50.
16 µM
